- Experiment Summary: compounds protecting cells from measles virus cytopathic effect, primary screen, measles RdRp inhibitor project, single point, MLSMR library, absorbance (AID 841)
- Cond: Measles virus-infected cells, CPE protection, at 4 µM
The whole screen tested about 140,000 compounds, of which about 2,100 (1.5%) were called active. Rule as the data show it: active = protection mostly above about 24% (no sharp cut-off); inactive = mostly below about 26%. The list comes from a sample in which actives are over-represented; it also holds close analogues and randomly drawn compounds.
Outcomes: active, inactive

Compound | Label Class
CCOC(=O)C(O)(c1ccc(N=Cc2ccccc2O)c(C)c1)C(F)(F)F (stereo not drawn) | inactive
CCN(N=Nc1nonc1OC)c1nonc1OC | inactive
CN(C)c1ccc(/C=C2\CC3C4CC=C5CC(O)CCC5(C)C4CCC3(C)C2=O)cc1 (stereo not drawn) | inactive
CC(C)N(CC#CCC1(O)c2ccccc2-c2ccccc21)C(C)C | inactive
CN1CCN(c2cc(N3CCNCC3)ccc2[N+](=O)[O-])CC1 | inactive
CCOC(=O)C(O)(c1ccc(NC(=O)c2ccco2)c(OC)c1)C(F)(F)F (stereo not drawn) | active
Cc1nc2ccccn2c1P(=S)(N1CCCCC1)N1CCCCC1 | inactive
Cc1nn(Cc2ccccc2Cl)c(Cl)c1C(=O)OC(C(=O)NC(N)=O)C(C)C (stereo not drawn) | inactive
O=c1[nH]c(=S)n(C2CC2)c(O)c1/C=N/N1CCOCC1 | inactive
Cn1c(C(=O)N2CCC(C(=O)N3CCC4(CC3)OCCO4)CC2)cc2sccc21 | inactive
Cc1cccc(OP(=O)(Oc2cccc(C)c2)OC(c2ccccc2)C(F)(F)F)c1 (stereo not drawn) | inactive
CCC(=O)CC(c1ccc([N+](=O)[O-])cc1)c1c(O)c2ccccc2oc1=O (stereo not drawn) | inactive
O=C(C1CC(=O)N(C2CCCC2)C1)N1CCC2(CC1)OCCO2 (stereo not drawn) | active

###

Quick list: protection (pct of control) per entry.
- Experiment Summary: compounds protecting cells from measles virus cytopathic effect, primary screen, measles RdRp inhibitor project, single point, MLSMR library, absorbance (AID 841)
- Cond: Measles virus-infected cells, CPE protection, at 4 µM, hits give high values
About 2,100 (1.5%) of roughly 140,000 compounds were called active. The entries come from a sample that favours actives as a whole.
Measured Metric: protection (pct of control) (%)

Compound | Measured Metric | Unit Name | Recorded Result
CNC(=O)N(C)c1nnc(C(C)(C)C)s1 | protection (pct of control) | % | 54.7
C=CCN1C(=O)C2(C(C(=O)OCC)=C(N)Oc3c2c(=O)oc2ccccc32)c2ccccc21 (stereo not given) | protection (pct of control) | % | 81
CN(C)C(=O)Oc1ccc(OCc2cccc[n+]2C)cc1 | protection (pct of control) | % | 6.21
Cc1cccc(-n2c(O)c(/C=N/N3CCOCC3)c(=O)[nH]c2=S)c1 | protection (pct of control) | % | 1.74
COC(=O)CN1C(=O)C2(C(C(=O)OC)=C(N)Oc3ccccc32)C2=C1CC(C)(C)CC2=O (stereo not given) | protection (pct of control) | % | 2.86
